molecular target: Metabotropic glutamate receptor 8 (Rattus norvegicus) (UniProt P70579); assay: mGluR8 Gi/Go-coupled signaling modulation – cell-based, rat, thallium flux, HTS, primary screen (AID 488969); conditions: HEK293 rat mGluR8, GIRK thallium flux, FluoZin2; at 10 µM; stronger effect = higher value; submaximal glutamate (EC20) added with thallium
Sequence (P70579 whole entry, looked up): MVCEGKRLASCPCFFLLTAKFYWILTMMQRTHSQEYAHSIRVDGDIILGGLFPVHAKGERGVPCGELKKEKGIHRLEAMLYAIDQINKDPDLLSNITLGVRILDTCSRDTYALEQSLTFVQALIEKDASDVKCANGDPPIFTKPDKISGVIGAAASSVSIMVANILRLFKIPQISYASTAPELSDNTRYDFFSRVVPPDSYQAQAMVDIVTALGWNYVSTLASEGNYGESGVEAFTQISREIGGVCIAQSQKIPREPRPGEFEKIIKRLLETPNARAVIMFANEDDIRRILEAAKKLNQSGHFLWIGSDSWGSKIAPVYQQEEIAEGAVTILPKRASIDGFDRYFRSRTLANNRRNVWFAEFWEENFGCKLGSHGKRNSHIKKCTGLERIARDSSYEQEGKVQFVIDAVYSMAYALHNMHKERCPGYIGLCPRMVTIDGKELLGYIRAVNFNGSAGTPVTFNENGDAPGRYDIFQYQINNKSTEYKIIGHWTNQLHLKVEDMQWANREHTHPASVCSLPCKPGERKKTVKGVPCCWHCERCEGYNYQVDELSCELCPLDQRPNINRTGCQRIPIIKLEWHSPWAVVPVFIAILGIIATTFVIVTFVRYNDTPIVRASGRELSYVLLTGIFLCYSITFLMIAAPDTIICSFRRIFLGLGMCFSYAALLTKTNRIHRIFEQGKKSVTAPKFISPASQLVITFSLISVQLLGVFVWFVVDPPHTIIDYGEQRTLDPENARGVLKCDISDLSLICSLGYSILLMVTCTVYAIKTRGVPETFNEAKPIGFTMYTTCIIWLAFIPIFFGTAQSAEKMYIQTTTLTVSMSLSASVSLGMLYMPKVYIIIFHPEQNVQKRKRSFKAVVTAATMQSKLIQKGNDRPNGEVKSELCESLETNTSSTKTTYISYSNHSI
Over roughly 110,000 compounds, “z-score” has its median near -0.1; the highest 2% begin near 2. Many of the other results were omitted from the sample, so the highest values are more common in it than they were.
Parameter threshold = -0.1. Response is Criterion met when z-score meets or exceeds it, else Criterion not met.

compound	measuredOn	discreteLabel
COc1ccc(CN(Cc2nc3ccccc3c(=O)[nH]2)C(=O)NC2CCCCC2)cc1	Metabotropic glutamate receptor 8 (Rattus norvegicus) (UniProt P70579)	Criterion not met

Request: Please indicate if the recorded z-score for O=C(Nc1cccc(Cl)c1)N(Cc1nc2ccccc2c(=O)[nH]1)C1CCCC1 meets or exceeds -0.1.
Response: Criterion not met

Request: Please indicate if the recorded z-score for O=C(NC1CCCCC1)N(Cc1nc2ccccc2c(=O)[nH]1)C1CCCC1 meets or exceeds -0.1.
Response: Criterion met

Request: Please indicate if the recorded z-score for CCOc1ccc(NC(=O)CNC(=O)c2ccc(OC)c(OC)c2)cc1 meets or exceeds -0.1.
Response: Criterion not met

Request: Please indicate if the recorded z-score for Cc1cc(C(=O)NCc2ccccc2F)cs1 meets or exceeds -0.1.
Response: Criterion not met

Request: Please indicate if the recorded z-score for CN(Cc1nc2ccccc2c(=O)[nH]1)c1ccccc1 meets or exceeds -0.1.
Response: Criterion met

Request: Please indicate if the recorded z-score for O=c1[nH]c(CS(=O)(=O)c2ccccc2)nc2ccccc12 meets or exceeds -0.1.
Response: Criterion met

Request: Please indicate if the recorded z-score for COc1ccc(-n2c(C)cc(C(=O)CN3C(=O)c4ccccc4C3=O)c2C)cc1 meets or exceeds -0.1.
Response: Criterion met

---

biological target: Metabotropic glutamate receptor 8 (Rattus norvegicus); assay: mGluR8 Gi/Go-coupled signaling modulation – cell-based, rat, thallium flux, HTS, primary screen (AID 488969); details: HEK293 rat mGluR8, GIRK (G protein-gated inwardly rectifying potassium channel) thallium flux, FluoZin2; at 10 µM; stronger effect = higher value; submaximal glutamate (EC20) added with thallium
The full ranking holds about 110,000 compounds; the median of “z-score” is about -0.1, and the highest 2% start at about 2. This is one part of a sample in which the highest values are shown more often than they occur.
Parameter threshold = 0.001. Response is condition met when z-score meets or exceeds it, else condition not met.

Request: Please indicate if the recorded z-score for CC(C)(C)NC(=O)C(c1ccncc1)N(C(=O)Cn1nnc(-c2cccs2)n1)C1CCCCC1 (configuration not stated) meets or exceeds 0.001.
Response: condition not met

Request: Please indicate if the recorded z-score for O=C(NC(=S)NCC1CCCO1)c1ccc(Cl)cc1Cl (configuration not stated) meets or exceeds 0.001.
Response: condition not met

Request: Please indicate if the recorded z-score for Cc1ccc(C(=O)NC2(C(F)(F)F)N=C3SCCN3C2=O)cc1 (configuration not stated) meets or exceeds 0.001.
Response: condition met

Request: Please indicate if the recorded z-score for O=C(CSc1ccc2nnc(-c3ccc(Cl)cc3)n2n1)N1CCCc2ccccc21 meets or exceeds 0.001.
Response: condition met

Request: Please indicate if the recorded z-score for O=C(NC1(C(F)(F)F)N=C2SCCN2C1=O)c1ccccc1 (configuration not stated) meets or exceeds 0.001.
Response: condition not met

Request: Please indicate if the recorded z-score for O=C(NC(=S)NCCN1CCOCC1)c1ccccc1Br meets or exceeds 0.001.
Response: condition met

Request: Please indicate if the recorded z-score for O=C(c1ccc(F)cc1)C1CCN(C(=S)Nc2ccccc2)CC1 meets or exceeds 0.001.
Response: condition not met

Request: Please indicate if the recorded z-score for CCc1ccccc1NC(=S)N1CCC(C(=O)c2ccc(F)cc2)CC1 meets or exceeds 0.001.
Response: condition met

Request: Please indicate if the recorded z-score for COc1ccc(/C=C2\C(=O)NC(=S)N2C(=O)c2ccc(F)cc2)cc1 meets or exceeds 0.001.
Response: condition met

Request: Please indicate if the recorded z-score for CCOP(=O)(O)c1ccccc1OCCCCCOc1ccccc1P(=O)(O)OCC meets or exceeds 0.001.
Response: condition not met

Request: Please indicate if the recorded z-score for COc1ccc(C(=O)C2CCN(C(=O)c3ccc(C)cc3)CC2)cc1 meets or exceeds 0.001.
Response: condition not met
